Property: pIC50; scope: individual compounds
- System: KRAS G12V dependent lung adenocarcinoma cell line, NCI-H441
- test_description: Cellular pERK (Thr202/Tyr204) FRET/HTRF assay
- Assay type: cell-based
- condition_set: Homo sapiens, NCI-H441, cellular pERK (Thr202/Tyr204) HTRF, NCI-H441 cells
- Experimental: “Ras” refers to a protein in the Ras superfamily of small GTPases, such as in the Ras subfamily. […] The Ras proteins play a critical role in the regulation of cell behaviors, including proliferation, differentiation, and survival. […] pERK was measured using an advanced pERK assay designed for the robust and highly sensitive quantification of ERK phosphorylation on Thr202/Tyr204. […] The simple mix-and-read protocol eliminates all wash steps for faster analysis and high-quality output. […]
pIC50: −log10 of the molar value.

| compound | pIC50 |
| --- | --- |
| [2H]C([2H])(F)Oc1c(F)ccc2cc(N)cc(-c3ncc4c(N5CCOC[C@H]6[C@H](F)[C@H]65)nc(OC[C@@]56CCCN5C/C(=C\F)C6)nc4c3F)c12 [Example 188] | > 7.30 |
| [2H]C([2H])(Oc1nc(N2CCOC[C@H]3[C@H](F)[C@H]32)c2cc(Cl)c(-c3cc(N)cc(C)c3C(F)(F)F)c(F)c2n1)[C@@]12CCCN1C[C@H](F)C2 [Example 179] | 5.00 to 6.30 |
| [2H]C([2H])(F)Oc1c(F)ccc2cc(N)cc(-c3ncc4c(N5CCOC[C@H]6[C@H](F)[C@H]65)nc(OC[C@@]56CCCN5C[C@]5(CC5(F)F)C6)nc4c3F)c12 (single isomer, unassigned) [Example 230] | > 7.30 |
| C#Cc1c(F)ccc2cc(N)cc(-c3ncc4c(N5CCOC[C@H]6[C@H](F)[C@H]65)nc(OC[C@@]56CC[C@@H](C)N5C[C@H](F)C6)nc4c3F)c12 [Example 287] | > 7.30 |
| C#Cc1c(F)ccc2cc(N)cc(-c3ncc4c(N5CCOC[C@H]6[C@H](F)[C@H]65)nc(OC[C@]56C[C@@H](F)CN5CCC6=O)nc4c3F)c12 [Example 414] | > 7.30 |
| C#Cc1cccc2cc(N)cc(-c3ncc4c(N5CCOC[C@H]6[C@H](Cl)[C@H]65)nc(OC[C@@H]5CCCN5C)nc4c3F)c12 [Example 322] | > 7.30 |
| C#Cc1c(F)ccc2cccc(-c3ncc4c(N5CCCC[C@H]6[C@H](F)[C@H]65)nc(OC[C@]56C/C(=C/F)CN5CCC65CC5)nc4c3F)c12 [Example 402] | > 7.30 |
| C#Cc1c(F)ccc2cc(N)cc(-c3ncc4c(N5CCOC[C@H]6[C@H](F)[C@H]65)nc(OC[C@@]56CCCN5[C@H](C)[C@H](F)C6)nc4c3F)c12 [Example 277] | > 7.30 |
| [2H]C([2H])(Oc1nc(N2CCOC[C@H]3[C@H](F)[C@H]32)c2cc(F)c(-c3cc(N)c(F)c(C)c3C(F)(F)F)c(F)c2n1)[C@@]12CCCN1C[C@H](F)C2 [Example 177] | > 7.30 |
| C#Cc1c(F)ccc2cc(O)cc(-c3ncc4c(N5CCCO[C@@H]6C[C@@H]65)nc(OC[C@H]5CCCN5C)nc4c3F)c12 [Example 280] | 6.30 to 7.30 |
| [2H]C([2H])(F)Oc1c(F)c(F)c(F)c2cc(N)cc(-c3ncc4c(N5CCOC[C@H]6[C@H](F)[C@H]65)nc(OC([2H])([2H])[C@@]56CCCN5C[C@H](F)C6)nc4c3F)c12 [Example 128] | > 7.30 |
